Target: Recombinant mTOR (FRAP1) (Homo sapiens)
Sequence (P42345 1360-2549 limits assumed): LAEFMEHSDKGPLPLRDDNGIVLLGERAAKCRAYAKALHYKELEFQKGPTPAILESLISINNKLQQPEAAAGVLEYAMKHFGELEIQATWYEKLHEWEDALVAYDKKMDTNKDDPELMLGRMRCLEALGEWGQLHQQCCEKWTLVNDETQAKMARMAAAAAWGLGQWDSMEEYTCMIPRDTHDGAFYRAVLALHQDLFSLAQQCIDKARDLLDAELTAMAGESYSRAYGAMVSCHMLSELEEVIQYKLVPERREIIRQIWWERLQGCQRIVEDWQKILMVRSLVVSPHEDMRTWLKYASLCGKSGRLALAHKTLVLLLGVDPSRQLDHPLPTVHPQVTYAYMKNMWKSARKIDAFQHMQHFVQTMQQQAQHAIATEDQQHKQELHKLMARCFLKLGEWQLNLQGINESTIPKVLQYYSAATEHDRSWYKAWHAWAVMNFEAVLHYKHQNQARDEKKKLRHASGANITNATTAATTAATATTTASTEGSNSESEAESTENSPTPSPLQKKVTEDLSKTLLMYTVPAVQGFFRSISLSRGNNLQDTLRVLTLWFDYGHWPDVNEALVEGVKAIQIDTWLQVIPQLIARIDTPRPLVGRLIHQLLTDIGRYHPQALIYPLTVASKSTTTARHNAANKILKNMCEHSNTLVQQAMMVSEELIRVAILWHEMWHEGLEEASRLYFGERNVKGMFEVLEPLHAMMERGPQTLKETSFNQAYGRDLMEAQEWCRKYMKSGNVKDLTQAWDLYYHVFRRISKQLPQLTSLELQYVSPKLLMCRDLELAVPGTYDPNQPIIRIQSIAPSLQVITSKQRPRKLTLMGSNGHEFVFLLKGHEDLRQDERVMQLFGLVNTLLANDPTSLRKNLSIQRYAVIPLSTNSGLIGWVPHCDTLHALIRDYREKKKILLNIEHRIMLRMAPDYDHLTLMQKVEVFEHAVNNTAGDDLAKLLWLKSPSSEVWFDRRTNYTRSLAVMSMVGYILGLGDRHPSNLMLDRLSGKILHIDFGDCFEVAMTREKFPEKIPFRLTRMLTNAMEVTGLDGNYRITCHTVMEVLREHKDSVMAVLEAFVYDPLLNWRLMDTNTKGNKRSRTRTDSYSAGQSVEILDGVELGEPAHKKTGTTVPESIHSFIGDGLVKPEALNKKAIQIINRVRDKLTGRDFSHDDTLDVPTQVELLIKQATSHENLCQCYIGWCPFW
Experiment: mTOR in vitro kinase assay (TR-FRET, phosphorylation of GFP-4E-BP1)
Settings: 8 μM ATP, 400 nM GFP-4E-BP1
pIC50: −log10 of the molar value.

# molecule, pIC50
data = [
    ("CC1OCCN(c2nc(Oc3ccc(C(=O)N(C)C)cc3F)nc(-c3cnc(N)s3)n2)C1C (stereo not shown)", "> 6.00"),
    ("C[C@H]1COCCN1c1nc(Oc2ccc(C(=O)N(C)C)cc2F)nc(-c2ccc3[nH]ncc3c2)n1", "> 6.00"),
    ("CC1COCCN1c1nc(Oc2ccc(C(=O)N(C)C)cc2F)nc(-c2ccc(N)nc2)n1 (stereo not shown)", "> 6.00"),
    ("CN(C)C(=O)c1ccc(Oc2nc(-c3ccc(N)nc3)nc(N3CC4CCC(C3)O4)n2)c(F)c1", "> 6.00"),
    ("C[C@H]1COCCN1c1nc(O[C@H]2CC[C@H](C(=O)N(C)C)CC2)nc(-c2ccc(CO)cc2)n1", "< 5.52"),
    ("CN(C)C(=O)N1CCC(Oc2nc(-c3ccc(N)nc3)nc(N3CCOCC3)n2)CC1", "> 6.00"),
    ("CN(C)C(=O)c1ccc(Oc2nc(-c3cnc(N)s3)nc(N3CCO[C@@H]4CCC[C@@H]43)n2)c(F)c1", "> 6.00"),
    ("Nc1ccc(-c2nc(Oc3ccc4c(c3)CCC(=O)N4)nc(N3CCOCC3)n2)cn1", "< 6.00"),
    ("CC[C@H]1COCCN1c1nc(Oc2ccc(C(=O)N(C)C)cc2)nc(-c2cnc(N)s2)n1", "> 6.00"),
    ("CN(C)C(=O)c1ccc(Oc2nc(-c3cnc(N)s3)nc(N3CCOc4ccccc43)n2)cc1", "> 6.00"),
    ("C[C@@H]1CN(c2nc(Oc3ccc(C(=O)N(C)C)cc3F)nc(-c3ccc(N)nc3)n2)[C@@H](C)CO1", "> 6.00"),
    ("C[C@H]1COCCN1c1nc(Oc2ccc(C(=O)N(C)C)cc2)nc(-c2cnc(N)nc2)n1", "> 6.00"),
    ("CN(C)C(=O)c1ccc(Oc2nc(-c3cnc(N)s3)nc(N3CCOCC3)n2)c(F)c1", "> 6.00"),
    ("CN(C)C(=O)c1ccc(Oc2nc(-c3cnc(N)s3)nc(N3CC4CCC(C3)O4)n2)cc1", "> 6.00"),
    ("C[C@H]1COC[C@H](C)N1c1nc(Oc2ccc(C(=O)N(C)C)cc2)nc(-c2cnc(N)s2)n1", "> 6.00"),
    ("CN(C)C(=O)Cc1ccc(Oc2nc(-c3ccc(N)nc3)nc(N3CCOCC3)n2)cc1", "> 6.00"),
    ("Cc1cc(Oc2nc(-c3ccc(N)nc3)nc(N3CCOCC3)n2)ccc1C(=O)N(C)C", "> 6.00"),
    ("CN(C)C(=O)c1ccc(Oc2nc(-c3cnc4[nH]ccc4c3)nc(N3CCOCC3)n2)c(F)c1", "> 6.00"),
    ("C[C@@H]1CN(c2nc(Oc3ccc(C(=O)N(C)C)cc3F)nc(-c3cnc(N)s3)n2)C[C@H](C)O1", "> 6.00"),
    ("C[C@H]1COCCN1c1nc(O[C@H]2CC[C@H](C(=O)N(C)C)CC2)nc(-c2ccc3[nH]ncc3c2)n1", "< 6.00"),
    ("CN(C)C(=O)N1CCC(Oc2nc(-c3cnc(N)s3)nc(N3CCOCC3)n2)CC1", "> 6.00"),
    ("C[C@H]1COCCN1c1nc(OC2CCC(C(=O)N(C)C)CC2)nc(-c2cccc(CO)c2)n1 (stereo partly shown)", "< 6.00"),
    ("CNC(=O)Nc1ncc(-c2nc(Oc3ccc(C(=O)N(C)C)cc3)nc(N3CCOC[C@@H]3C)n2)s1", "> 6.00"),
    ("C[C@H]1COCCN1c1nc(O[C@H]2CC[C@H](C(=O)N(C)C)CC2)nc(-c2cnc(N)s2)n1", "> 6.00"),
    ("CN(C)C(=O)C1CCC(Oc2nc(-c3ccc4[nH]ccc4c3)nc(N3CCO[C@@H]4CCC[C@H]43)n2)CC1 (stereo partly shown)", "< 5.00"),
]
